- test.target: A1PI (Homo sapiens)
- Construct: Human plasma is currently the only approved source of therapeutic AlPI
- Sequence (P01009 25-418): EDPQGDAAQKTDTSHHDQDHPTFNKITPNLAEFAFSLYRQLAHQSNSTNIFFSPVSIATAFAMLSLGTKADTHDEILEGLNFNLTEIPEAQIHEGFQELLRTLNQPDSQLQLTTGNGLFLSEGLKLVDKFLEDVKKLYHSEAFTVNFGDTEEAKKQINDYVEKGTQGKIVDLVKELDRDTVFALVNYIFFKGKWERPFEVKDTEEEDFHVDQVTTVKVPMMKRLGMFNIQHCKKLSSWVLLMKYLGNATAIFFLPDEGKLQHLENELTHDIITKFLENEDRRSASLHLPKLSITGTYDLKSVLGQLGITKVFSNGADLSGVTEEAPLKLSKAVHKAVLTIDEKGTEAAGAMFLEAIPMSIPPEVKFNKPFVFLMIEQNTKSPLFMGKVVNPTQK
- test.summary: Capture and elution of active A1PI with 2M urea buffer (elastase inhibition activity assay and immunonephelometry)
- Format: binding
- measurement.conditions: 1 mg A1PI, 4° C.; eluted with 2M urea, pH 6; elastase inhibition activity assay
Ends that are not written are not given here.
quantity.kind: Mass A1PI in Urea Eluate (mg), Activity
Report field: quantity (unit follows the number).

For orientation, consider the following solved cases.
{"columns": ["substance", "test.target", "result"],
 "data": [
  ["VIFLVR", "A1PI (Homo sapiens)", "0.36 mg"],
  ["PYWIVR", "A1PI (Homo sapiens)", "0.37 mg"],
  ["LIVHRW", "A1PI (Homo sapiens)", "0.75 mg"]
]}

For record "RAFWYI" the listed Mass A1PI in Urea Eluate (mg), Activity is 0.62 mg

For record RVLFIH: reversed sequence of VIFLVR with C-terminal His the listed Mass A1PI in Urea Eluate (mg), Activity is 0.56 mg

For record "RYRIFI" the listed Mass A1PI in Urea Eluate (mg), Activity is 0.67 mg

For record "RFIYYT" the listed Mass A1PI in Urea Eluate (mg), Activity is 0.67 mg

Provenance of the data: patent US5985836A
